measured.target: T1, CD3 on primary human pan T cells (human, UniProt P07766 23-207)
T1 construct: on cells it stands in the TCR/CD3 complex; also called Pan T-cells (CD3-positive); endogenous CD3
T1 sequence (P07766 23-207 limits assumed): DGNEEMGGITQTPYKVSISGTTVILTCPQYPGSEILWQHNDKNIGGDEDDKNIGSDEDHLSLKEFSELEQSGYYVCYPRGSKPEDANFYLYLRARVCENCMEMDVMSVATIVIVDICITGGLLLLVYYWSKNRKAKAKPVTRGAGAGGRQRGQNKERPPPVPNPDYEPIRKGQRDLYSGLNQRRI
test.method.notes: flow cytometry, pan T-cells
measurement.label: % Binding retained on T-cells, 60° C. (fraction)
I only need the number, in fraction, no unit after it.

[in] Given the binder CD3B2069 (scFv) scFv: QVQLVQSGAEVKKPGSSVKVSCKASGYTFTRSTMHWVRQAPGQGLEWMGYINPSSAYTNYNQKFQGRVTLTADKSTSTAYMELSSLRSEDTAVYYCASPQVHYDYNGFPYWGQGTLVTVSSGGSEGKSSGSGSESKSTGGSEIVLTQSPATLSASPGERVTLSCSASSSVSYMNWYQQKPGTAPRRWIYDSSKLASGVPARFSGSGSGRDYTLTISSLEPEDFAVYYCQQWSRNPPTFGGGTKVEIK , what is its reported % Binding retained on T-cells, 60° C.?
[out] 1.48

[in] Given the binder CD3B2038 (scFv) scFv: QVQLVQSGAEVKKPGSSVKVSCKASGYTFTRSTMHWVKQAPGQGLEWMGYINPSSAYTNYAQKFQGRVTLTADKSTSTAYMELSSLRSEDTAVYYCASPQVHYDYNGFPYWGQGTLVTVSSGGSEGKSSGSGSESKSTGGSEIVLTQSPATLSASPGERVTLSCSASSSVSYMNWYQQKPGTAPRRLIYDSSKLASGVPARFSGSGSGRDYTLTISSLEPEDFAVYYCQQWSRNPPTFGGGTKVEIK , what is its reported % Binding retained on T-cells, 60° C.?
[out] 1.1
